test system: human SOS1 (loading of human K-Ras^G12C-GDP with fluorescent GTP-analog) (Homo sapiens, UniProt Q07889)
assay protocol: Biochemical assay 3: K-Ras^G12C activation assay by hSOS1 (HTRF)
test conditions: no GTP; read-out: Assay 3 (KRAS-Activation by SOS no GTP) activity expressed as IC50
measured endpoint: pIC50
Please note pIC50 is a logarithmic value: minus log10 of concentration in mol/L. Answer with that number alone.

Enquiry: What measured pIC50 goes with COc1cc2nc(C)nc(NC(C)c3ccc(F)c4[nH]ncc34)c2cc1OC (stereo not shown) [Example 5] ?
Return: 5.30

Enquiry: What measured pIC50 goes with COc1cc2nc(C)nc(NC(C)c3ccc(-c4ccc(F)cc4CNC(=O)CNc4ccccc4)s3)c2cc1OC (stereo not shown) [Example 299] ?
Return: 5.73

Enquiry: What measured pIC50 goes with COc1cc2nc(C)nc(N[C@@H](C)c3ccc(-c4ccoc4)s3)c2cc1OC (racemic) [Example 153] ?
Return: 5.39

Enquiry: What measured pIC50 goes with COc1cc2nc(C)nc(NC(C)c3ccc(-c4ccccc4CO)s3)c2cc1OC (stereo not shown) [Example 244] ?
Return: 6.35

Enquiry: What measured pIC50 goes with COc1cc2nc(C)nc(NC(C)c3ccc(-c4ccc(CN)o4)s3)c2cc1OC (stereo not shown) [Example 275] ?
Return: 5.20

Enquiry: What measured pIC50 goes with COc1cc2nc(C)nc(NC(C)c3ccc(-c4ccc(F)c5ccccc45)s3)c2cc1OC (stereo not shown) [Example 233] ?
Return: 4.79

Enquiry: What measured pIC50 goes with COc1cc2nc(C)nc(N[C@H](C)c3cccc(-c4c[nH]cn4)c3)c2cc1OC [Example 342] ?
Return: 5.95

Enquiry: What measured pIC50 goes with COc1cc2nc(C)nc(N[C@H](C)c3cccc(-c4ccc(N5CCOCC5)cc4)c3)c2cc1OC [Example 79] ?
Return: 5.78

Enquiry: What measured pIC50 goes with CCOCc1ccccc1-c1cccc([C@@H](C)Nc2nc(C)nc3cc(OC)c(OC)cc23)c1 [Example 64] ?
Return: 5.66

Enquiry: What measured pIC50 goes with COc1cc2nc(C)nc(N[C@H](C)c3cccc(-c4ccc(C(=O)N(C)C)cc4)c3)c2cc1OC [Example 115] ?
Return: 5.80

Enquiry: What measured pIC50 goes with COc1cc2nc(C)nc(NC(C)c3ccc(-c4ccccc4CNCC(=O)Nc4ccccc4)s3)c2cc1OC (stereo not shown) [Example 289] ?
Return: 5.56

Enquiry: What measured pIC50 goes with COc1cc2nc(C)nc(N[C@@H](C)c3ccc(-c4cccc(S(N)(=O)=O)c4)s3)c2cc1OC (racemic) [Example 130] ?
Return: 4.93

Enquiry: What measured pIC50 goes with COc1cc2nc(C)nc(NC(C)c3ccc(-c4ccccc4CNCC(=O)N(C)C)s3)c2cc1OC (stereo not shown) [Example 280] ?
Return: 6.87

Enquiry: What measured pIC50 goes with COc1cc2nc(C)nc(N[C@H](C)c3cccc(-c4ccc(CO)s4)c3)c2cc1OC [Example 107] ?
Return: 6.36

Enquiry: What measured pIC50 goes with COc1cc2nc(C)nc(NC(C)c3ccc(Br)s3)c2cc1OC (stereo not shown) [Example 209] ?
Return: 5.31

Enquiry: What measured pIC50 goes with COc1cc2nc(C)nc(N[C@H](C)c3ccc(C(N)=O)cc3)c2cc1OC [Example 192] ?
Return: 4.85

Enquiry: What measured pIC50 goes with COc1cc2nc(C)nc(N[C@@H](C)c3ccc(-c4c(C)noc4C)s3)c2cc1OC (racemic) [Example 147] ?
Return: 6.18

Enquiry: What measured pIC50 goes with COc1cc2nc(C)nc(NC(C)c3ccc(-c4ccc(F)cc4CNC(=O)c4cnc[nH]4)s3)c2cc1OC (stereo not shown) [Example 294] ?
Return: 5.07

Enquiry: What measured pIC50 goes with COCc1ccccc1-c1cccc([C@@H](C)Nc2nc(C)nc3cc(OC)c(OC)cc23)c1 [Example 104] ?
Return: 5.60
